Reported values of cell viability for individual entries
System: HL-60
measurement description: cell viability (% survival relative to DMSO control); higher = less cytotoxic
measurement setup: 0.001 µM; 72 h; co-treatment: AZD3965 100 nM
measurement name: cell viability (%)

molecule=Cc1c2c(=O)n(-c3ccccc3Cl)[nH]c2cc(=O)n1Cc1ccccn1 value=103
molecule=CCOC(=O)N1c2ccc(C(F)(F)F)cc2[C@@H](N(Cc2cc(C(F)(F)F)cc(C(F)(F)F)c2)C(=O)OC)C[C@H]1CC value=101
molecule=Cc1ccc(S(=O)(=O)NC2c3ccccc3Oc3ccccc32)cc1 value=100
molecule="Cc1c(-c2ccccc2)oc2c(C(=O)OCCN3CCCCC3)cccc2c1=O.Cl [Flavoxate]" value=90.8
molecule="CN(C)c1nc(O)c2[nH]cnc2n1 [2-Dimethylamino-6-hydroxypurine]" value=98.9
molecule=CC(C)Cc1sc(N)nc1-c1ccc(P(=O)(O)O)o1 value=105
molecule=O=C(c1ccc(OCCN2CCCCC2)cc1)c1c(-c2ccc(O)cc2)sc2cc(O)ccc12 value=93
molecule=NC(=O)c1ncn([C@@H]2O[C@H](CO)[C@@H](O)[C@H]2O)n1 value=100
